- Tested on: CCRF-CEM leukemia
- ASSAY TEXT: NCI-60 one-dose screen, 48 h
- REPORTED CONDITIONS: 10 µM
About 83,000 compounds went through this panel and 20% of them were active in at least one assay; those are over-represented in the sample as a whole. The source made the active and inactive calls. The calls were made as follows: active = growth percent below 10; inactive = the rest.
Please answer using one outcome listed in 1 for active, 0 for inactive

Which outcome was assigned to COc1cc(C(=O)NC(=S)Nc2ccc3ccccc3c2)cc(OC)c1OC in this test?
0

Record: Cc1ccc(Cl)cc1N1C(=O)CC(Sc2ccccc2N)C1=O (stereo not given)
0

# repeat for CCc1ccc(/C(C#N)=C/C=C/c2ccccc2)cc1
1

Note, next up: NC(N)=Nc1cc2ccccc2c2ccccc12
0

How about this compound: Cc1cc(C)c(CC(=O)O)c(C)c1
0

Likewise for CCN=c1cc2sc3cc(NCC)c(C)cc3nc-2cc1C ?
0

And O=C(Cc1ccccc1)Cc1ccccc1 ?
0

Request: N#Cc1ccc(NC(=O)Nc2cccc(C#N)c2)cc1
0

Now consider CCN(CC)C(=O)/C=C(/C)c1ccccc1 and answer again.
0

What do you get for COc1cc(C2c3cc4c(cc3C3OC(=O)C2C3CO)OCO4)cc(OC)c1OC (stereo not given) ?
1

O=c1cc2oc3cc(O)c(O)cc3c(-c3ccccc3O)c-2cc1O ?
0

What do we get for O=C(O)c1cccc([N+](=O)[O-])c1O ?
0

Moving on to the next compound: C=CCNc1ccccc1
0

Also, CN(C)c1ccc(C(c2ccc(O)cc2)c2ccc(N(C)C)cc2)cc1 please.
0

Now consider Nc1ccc(N=Nc2ccc(O)cc2)c(N)n1 and answer again.
0
